Exercise: for every item that follows, state its recorded binding response of second antibody (nm).
Target Under Test: T1, human GFRα3 expressed with a C-terminal myc-myc-hexahistidine tag (human, UniProt O60609 32-374, biotinylated (sites not given) in ELISA format 2 and in the Octet cross-competition; not in SPR)
T1 construct: also called hGFRα3-mmh; hGFRα3-mmH
T1 sequence (O60609 other isoform, or with tags, fused parts or gaps limits assumed): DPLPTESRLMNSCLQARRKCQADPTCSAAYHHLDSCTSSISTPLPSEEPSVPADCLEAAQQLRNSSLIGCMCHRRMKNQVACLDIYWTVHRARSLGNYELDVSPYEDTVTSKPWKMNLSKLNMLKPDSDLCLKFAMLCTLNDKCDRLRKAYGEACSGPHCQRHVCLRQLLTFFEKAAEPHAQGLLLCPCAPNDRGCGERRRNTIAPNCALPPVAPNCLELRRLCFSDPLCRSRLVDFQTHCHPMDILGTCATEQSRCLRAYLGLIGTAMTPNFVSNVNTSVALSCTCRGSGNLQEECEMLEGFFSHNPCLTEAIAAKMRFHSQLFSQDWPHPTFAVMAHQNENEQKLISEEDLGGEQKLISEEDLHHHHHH
Procedure Details: Octet cross-competition; biotin-hGFRα3-mmH pre-saturated with first antibody H4H2212N
Give the value in nm but do not write nm after it.

# query: binding response of second antibody (nm) of entry H4H2291S (antibody, human IgG4, V domains shown, human IgG4 Fc (H4H)) VH: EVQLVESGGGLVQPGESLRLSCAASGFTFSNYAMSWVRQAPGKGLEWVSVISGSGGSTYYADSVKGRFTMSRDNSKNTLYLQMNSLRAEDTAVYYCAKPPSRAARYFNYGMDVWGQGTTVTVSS VL: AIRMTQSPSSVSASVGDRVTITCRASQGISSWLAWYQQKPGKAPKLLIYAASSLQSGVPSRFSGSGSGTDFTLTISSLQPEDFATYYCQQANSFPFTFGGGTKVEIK
2.69

# query: binding response of second antibody (nm) of entry H4H2243N2 (antibody, human IgG4, V domains shown, human IgG4 Fc (H4H)) VH: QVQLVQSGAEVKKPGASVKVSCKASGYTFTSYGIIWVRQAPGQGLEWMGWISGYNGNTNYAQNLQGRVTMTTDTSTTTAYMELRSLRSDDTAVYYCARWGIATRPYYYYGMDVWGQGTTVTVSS VL: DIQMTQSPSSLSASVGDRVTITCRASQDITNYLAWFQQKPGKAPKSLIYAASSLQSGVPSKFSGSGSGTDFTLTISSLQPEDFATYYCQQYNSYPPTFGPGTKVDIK
0.16

# query: binding response of second antibody (nm) of entry H4H2357S (antibody, human IgG4, V domains shown, human IgG4 Fc (H4H)) VH: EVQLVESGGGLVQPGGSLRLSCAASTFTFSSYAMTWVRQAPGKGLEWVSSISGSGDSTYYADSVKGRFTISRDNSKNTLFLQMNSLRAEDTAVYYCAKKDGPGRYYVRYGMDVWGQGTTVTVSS VL: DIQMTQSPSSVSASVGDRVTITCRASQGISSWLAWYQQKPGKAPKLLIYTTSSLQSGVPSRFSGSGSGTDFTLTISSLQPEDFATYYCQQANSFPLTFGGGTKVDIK
2.38

# query: binding response of second antibody (nm) of entry H4H2294S (antibody, human IgG4, V domains shown, human IgG4 Fc (H4H)) VH: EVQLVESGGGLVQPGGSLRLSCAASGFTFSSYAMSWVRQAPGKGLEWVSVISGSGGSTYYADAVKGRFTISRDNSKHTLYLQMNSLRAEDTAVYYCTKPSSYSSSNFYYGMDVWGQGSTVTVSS VL: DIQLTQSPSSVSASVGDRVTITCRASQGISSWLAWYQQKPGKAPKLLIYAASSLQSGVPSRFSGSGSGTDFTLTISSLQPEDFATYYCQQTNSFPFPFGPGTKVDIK
2.12
